Settings: in ethanol, 303.15 K
reportedProperty: solubility (mole fraction)
API note: the answer field is a bare number with no unit suffix.

Q. I'd like to know its solubility (mole fraction). The compound in question is Cc1nc2n(c(=O)c1CCN1CCC(c3noc4cc(F)ccc34)CC1)CCCC2
A. 0.00259

###

Details: in ethyl acetate, 293.15 K
reportedProperty: solubility (mole fraction)
API note: the answer field is a bare number with no unit suffix.

Q. I'd like to know its solubility (mole fraction). The compound in question is Cc1nc2n(c(=O)c1CCN1CCC(c3noc4cc(F)ccc34)CC1)CCCC2
A. 0.00207

###

Conditions: in methyl acetate, 308.15 K
reportedProperty: solubility (mole fraction)
API note: the answer field is a bare number with no unit suffix.

Q. I'd like to know its solubility (mole fraction). The molecule in question is Cc1nc2n(c(=O)c1CCN1CCC(c3noc4cc(F)ccc34)CC1)CCCC2
A. 0.00397

Measured values drawn from BigSolDB 2.1 for this set.
